Tested on: COLO 205 colon
assayRemarks: NCI-60 one-dose screen, 48 h (100 = growth as untreated, 0 = no growth, -100 = all killed)
experimentalConditions: 10 µM unless noted
The panel holds about 83,000 compounds, 20% with a hit somewhere; the sample as a whole holds those more often.
Recorded growth for the following compounds
Express the result in % but write the number alone.

Ask | For the compound shown here, C[C@H]1CCC/C=C/[C@@H]2C[C@H](O)C[C@H]2[C@H](O)/C=C/C(=O)O1 , give the reported growth.
Reply | -75.4

Ask | For the compound shown here, CC1=C(CO)C2=C(C)C3(CC3)[C@@](C)(O)C(=O)C2=C1 , give the reported growth.
Reply | -40.1

Ask | For the compound shown here, CC[C@](O)(C(=O)O)c1cc2n(c(=O)c1CO)Cc1cc3ccccc3nc1-2 , give the reported growth.
Reply | -20.7

Ask | For the compound shown here, CCCCCCCCCCCC1CCCC(C)N1 (stereo not given) , give the reported growth.
Reply | -33

Ask | For the compound shown here, Cc1cc(N=Nc2ccccc2C)ccc1N , give the reported growth.
Reply | 111

Ask | For the compound shown here, CC[C@@]1(O)C[C@H](OC2CC(N(C)C)C(O)C(C)O2)c2c(O)c3c(c(O)c2[C@H]1OC1CC(N(C)C)C(O)C(C)O1)C(=O)c1cccc(O)c1C3=O (stereo not given in full) , give the reported growth.
Reply | -20.5

Ask | For the compound shown here, C[C@]12CC[C@H](O)CC1=CC[C@@H]1[C@@H]2CC[C@]2(C)C(=O)CC[C@@H]12 , give the reported growth.
Reply | 93.4

Ask | For the compound shown here, O=C1c2ccccc2C(=O)C(Cl)C1Cl (stereo not given) , give the reported growth.
Reply | -94.3

Ask | For the compound shown here, COc1ccc(OC)c(/C=C/[N+](=O)[O-])c1 , give the reported growth.
Reply | -51.6

Ask | For the compound shown here, COC1CC(CC2CCC(C)C(C(C)C(=O)O)O2)OC2(OC(C)(C3CCC(C)(C4OC(C5OC(O)(CO)C(C)CC5C)CC4C)O3)CC2C)C1C (stereo not given) , give the reported growth.
Reply | -12

###

System: BT-549 breast
assayRemarks: NCI-60 one-dose screen, 48 h
experimentalConditions: 10 µM unless noted
About 83,000 compounds went through this panel and 20% of them were active in at least one assay; those are over-represented in the sample as a whole. Calls of active or inactive are those of the source. How the source made its calls: active means growth percent below 10; inactive means the rest.
Select the matching outcome among active, inactive

C[C@H]1CCC/C=C/[C@@H]2C[C@H](O)C[C@H]2[C@H](O)/C=C/C(=O)O1
active
CC[C@@]1(O)C[C@H](OC2CC(N(C)C)C(OC3CC(O)C(OC4CCC(=O)C(C)O4)C(C)O3)C(C)O2)c2c(cc3c(c2O)C(=O)c2c(O)ccc(O)c2C3=O)[C@H]1C(=O)OC (some centres undefined)
active
Oc1cc[c]([Hg][Cl])cc1
inactive
CC1=C(CO)C2=C(C)C3(CC3)[C@@](C)(O)C(=O)C2=C1
active
Cc1ccc(C(=O)OC(C(=O)O)C(OC(=O)c2ccc(C)cc2)C(=O)O)cc1 (centres undefined) (tested in a mixture with another compound)
inactive

Ask | Returns: the outcome recorded for COC1CC(CC2CCC(C)C(C(C)C(=O)O)O2)OC2(OC(C)(C3CCC(C)(C4OC(C5OC(O)(CO)C(C)CC5C)CC4C)O3)CC2C)C1C (centres undefined) in this assay.
Reply | active

###

System: CAKI-1 renal
assayRemarks: NCI-60 one-dose screen, 48 h (100 = growth as untreated, 0 = no growth, -100 = all killed)
experimentalConditions: 10 µM unless noted
The panel holds about 83,000 compounds, 20% with a hit somewhere; the sample as a whole holds those more often.
Recorded growth for the following molecules
Express the result in % but write the number alone.

// below: answered molecules
COC1=C(C)C(=O)C2=C(C1=O)C(CO)N1C(C#N)C3CC4C(C1C2N1CCOC41)N3C (centres undefined)
-23.1
CC[C@](O)(C(=O)O)c1cc2n(c(=O)c1CO)Cc1cc3ccccc3nc1-2
-28.8

Ask | For the molecule shown here, CC[n+]1c(-c2ccccc2)c2cc(N)ccc2c2ccc(N)cc21 , give the reported growth.
Reply | 81

Ask | For the molecule shown here, CO[C@H](/C(C)=C/C=C/C(C)=C/c1coc(C)n1)[C@H](C)[C@H]1C[C@@H](O)[C@@]2(C)O[C@H]2/C=C/[C@@H](C)[C@@H]2C[C@@H](CC(=O)O2)C[C@H]2O[C@@H]2C(=O)O1 , give the reported growth.
Reply | 15

###

Recorded growth for the following compounds
System: U251 CNS
assayRemarks: NCI-60 one-dose screen, 48 h (100 = growth as untreated, 0 = no growth, -100 = all killed)
experimentalConditions: 10 µM unless noted
Compounds without any hit were thinned out: in the full panel of roughly 83,000, 20% have a hit.
Express the result in % but write the number alone.

CCCCCCCCCCCC1CCCC(C)N1 (stereo not given)
59.6
CC1=C(CO)C2=C(C)C3(CC3)[C@@](C)(O)C(=O)C2=C1
2.57
CCC(=O)OC1CCn2c1nc1c2C(=O)C(C)=C(N2CC2)C1=O (stereo not given)
-24.2
COC1CC(CC2CCC(C)C(C(C)C(=O)O)O2)OC2(OC(C)(C3CCC(C)(C4OC(C5OC(O)(CO)C(C)CC5C)CC4C)O3)CC2C)C1C (stereo not given)
3.01

Consider the additional compound presented here.
Ask | For the compound shown here, CC[C@](O)(C(=O)O)c1cc2n(c(=O)c1CO)Cc1cc3ccccc3nc1-2 , give the reported growth.
Reply | 1.58

###

Test system: SK-MEL-2 melanoma
assayRemarks: NCI-60 one-dose screen, 48 h (100 = growth as untreated, 0 = no growth, -100 = all killed)
experimentalConditions: 10 µM unless noted
Protocol: Growth inhibition of the SK-MEL-2 human tumor cell line is measured as a screen for anti-cancer activity. Cells are grown in 96 well plates and exposed to the test compound for 48 hours. Compounds are tested at a single concentration, which is 10^-5 M for most compounds. The reported endpoint is percent growth (GI% or GIPRCNT), where numbers from 0 - 100% represent growth inhibition, and numbers from -100% - 0 represent cell death. For example, a value of 40 represents 60% growth inhibition. […]
Compounds without any hit were thinned out: in the full panel of roughly 83,000, 20% have a hit. Calls of active or inactive are those of the source. How the source made its calls: active means growth percent below 10; inactive means the rest.
Recorded growth for the following compounds

Ask | For the compound shown here, Cc1ccc(C(=O)OC(C(=O)O)C(OC(=O)c2ccc(C)cc2)C(=O)O)cc1 (stereo unspecified) (tested in a mixture with another compound) , give the reported growth.
Reply | 77.1% (inactive)

###

System: BT-549 breast
assayRemarks: NCI-60 one-dose screen, 48 h
experimentalConditions: 10 µM unless noted
Compounds without any hit were thinned out: in the full panel of roughly 83,000, 20% have a hit. Active and inactive are the calls of the source. The calls were made as follows: active = growth percent below 10; inactive = the rest.
Select the matching outcome among active, inactive

CO[C@H](/C(C)=C/C=C/C(C)=C/c1coc(C)n1)[C@H](C)[C@H]1C[C@@H](O)[C@@]2(C)O[C@H]2/C=C/[C@@H](C)[C@@H]2C[C@@H](CC(=O)O2)C[C@H]2O[C@@H]2C(=O)O1
active
CCC1(O)CC(OC2CC(N(C)C)C(OC3CC4OC5CC(=O)C(C)OC5OC4C(C)O3)C(C)O2)c2c(cc3c(c2O)C(=O)c2c(O)ccc(O)c2C3=O)C1C(=O)OC (stereo unspecified)
active
CCC(=O)OC1CCn2c1nc1c2C(=O)C(C)=C(N2CC2)C1=O (stereo unspecified)
active
CC[C@](O)(C(=O)O)c1cc2n(c(=O)c1CO)Cc1cc3ccccc3nc1-2
active
Cc1c(N)nc([C@H](CC(N)=O)NC[C@H](N)C(N)=O)nc1C(=O)N[C@H](C(=O)N[C@H](C)[C@@H](O)[C@H](C)C(=O)N[C@H](C(=O)NCCc1nc(-c2nc(C(=O)NCCC[S+](C)C)cs2)cs1)[C@@H](C)O)C(OC1OC(CO)C(O)C(O)C1OC1OC(CO)C(O)C(OC(N)=O)C1O)c1cnc[nH]1 (stereo partly specified)
inactive

Turning to the following compound.
Ask | Returns: the outcome recorded for Cc1cc(N=Nc2ccccc2C)ccc1N in this assay.
Reply | inactive

###

Test system: HT29 colon
assayRemarks: NCI-60 one-dose screen, 48 h
experimentalConditions: 10 µM unless noted
About 83,000 compounds went through this panel and 20% of them were active in at least one assay; those are over-represented in the sample as a whole. The source made the active and inactive calls. The calls were made as follows: active = growth percent below 10; inactive = the rest.
Select the matching outcome among active, inactive

CCOC(=O)C(NC(=O)C(Cc1ccc(N(CCCl)CCCl)cc1)NC(C)=O)C(C)C (centres undefined)
inactive
COc1ccc(OC)c(/C=C/[N+](=O)[O-])c1
active

Ask | Returns: the outcome recorded for CCC1(O)CC(OC2CC(N(C)C)C(OC3CC4OC5CC(=O)C(C)OC5OC4C(C)O3)C(C)O2)c2c(cc3c(c2O)C(=O)c2c(O)ccc(O)c2C3=O)C1C(=O)OC (centres undefined) in this assay.
Reply | active

Ask | Returns: the outcome recorded for Cc1cc(N=Nc2ccccc2C)ccc1N in this assay.
Reply | inactive

Ask | Returns: the outcome recorded for Cc1ccc(C(=O)OC(C(=O)O)C(OC(=O)c2ccc(C)cc2)C(=O)O)cc1 (centres undefined) (tested in a mixture with another compound) in this assay.
Reply | inactive

Ask | Returns: the outcome recorded for COC1=C(C)C(=O)C2=C(C1=O)C(CO)N1C(C#N)C3CC4C(C1C2N1CCOC41)N3C (centres undefined) in this assay.
Reply | active

Ask | Returns: the outcome recorded for O=C1c2ccccc2C(=O)C(Cl)C1Cl (centres undefined) in this assay.
Reply | inactive

Ask | Returns: the outcome recorded for CC1=C2C(=O)[C@H]3[C@@H](CC=C4C[C@@H](O)CC[C@@]43C)[C@@H]2CC[C@]12O[C@@H]1C[C@H](C)CN[C@H]1[C@H]2C in this assay.
Reply | inactive

Ask | Returns: the outcome recorded for CC[C@@]1(O)C(=O)OCc2c1cc1n(c2=O)Cc2cc3ccccc3nc2-1 in this assay.
Reply | active
